- System: HCT-15 colon
- measurement_description: NCI-60 one-dose screen, 48 h (100 = growth as untreated, 0 = no growth, -100 = all killed)
- measurement_conditions: 10 µM unless noted
The panel holds about 83,000 compounds, 20% with a hit somewhere; the sample as a whole holds those more often.
Here, each record is paired with measured growth data.
reported_metric: growth (%)

* CS(=O)(=O)c1ccc(Nc2nc(N[C@H]3CCCC[C@H]3N)nc3cc[nH]c(=O)c23)cc1 | 102
* CCCCCc1nc2c(c3c1CCCC3)CCCC2 | 74.8
* C=C(C)[C@@H]1CC[C@]2(C(=O)NC3CCCCC3)CC[C@]3(C)[C@H](CC[C@@H]4[C@@]5(C)CCCNC(C)(C)[C@@H]5CC[C@]43C)[C@@H]12 | -26.8
* CC(C)C(NC(=O)C1(NC(=O)OCc2ccccc2)CCCC1)C(=O)O (centres undefined) | 112
* O=c1oc2ccccc2c(Cl)c1Cl | 38.9
* O=C(NCCCNc1cc(-c2cn(-c3ccccc3)nc2-c2cccc(O)c2)ccn1)c1ccc(F)cc1 | -4.32
* COc1ccccc1N1C(=O)/C(=C/C2=Cc3ccccc3OC2)SC1=S | 65.3
* NS(=O)(=O)c1cnccc1Oc1cccc2cccnc12 | 90.5
* COc1cc(N=Nc2ccc(N)cc2)c(OC)cc1N=Nc1ccccc1.[Cl][Zn][Cl] | 91.2
* COc1ccc2nc(NNC(=O)c3cnccn3)c3cccn3c2c1 | -19.5
* Cn1c(-c2c(N)n(Cc3cccnc3)c3nc(C#N)c(C#N)nc23)nc2ccccc21 | 94.5
* Cc1ccc(-n2c(-c3ccccc3)c(-c3ccccc3)c3c(SCC(=O)n4[nH]c(N)cc4=O)ncnc32)cc1 | 101
* c1ccc(-c2nc([P+](c3ccccc3)(c3ccccc3)c3ccccc3)c(N3CCOCC3)o2)cc1 | 79.3
* CCc1ccccc1-n1c(N)c(C#N)c(-c2ccc(N(C)C)cc2)c(C#N)c1=O | 97.7

###

- Test system: OVCAR-5 ovarian
- measurement_description: NCI-60 one-dose screen, 48 h
- measurement_conditions: 10 µM unless noted
About 83,000 compounds went through this panel and 20% of them were active in at least one assay; those are over-represented in the sample as a whole. Calls of active or inactive are those of the source. The calls were made as follows: active = growth percent below 10; inactive = the rest.
Classes used: active, inactive

- O=C1Nc2ccc(F)cc2C12Nc1cc(Cl)ccc1S2 (stereo not drawn): inactive
- Cc1nn(-c2ccccc2)c(Cl)c1/C=C(/NC(=O)c1ccccc1)c1nc2ccccc2[nH]1: inactive
- C[C@H]1[C@H]2[C@H]3CC[C@@H]4[C@@]5(C)C/C(=C/c6cccnc6)C(=O)C(C)(C)[C@@H]5CC[C@@]4(C)[C@]3(C)CC[C@]23CO[C@]1(C)[C@@H](C(=O)/C=C\c1cccnc1)C3: active
- NC(=S)Nc1cccc(O)c1: inactive
- FC(F)(F)c1cc(Nc2ccc3cc(OCCCN4CCOCC4)ccc3n2)ccc1Cl: inactive
- Cc1ccccc1NC(=O)N/C(N)=N/c1nc(-c2cccc([N+](=O)[O-])c2)cs1: inactive
- Cc1cc(NCc2cc(Nc3ccnc4cc(Cl)ccc34)ccc2F)nc(N2CCN(C)CC2)n1: active
- CC(=O)[C@@H]1CC[C@]2(COS(=O)(=O)c3ccc(C)cc3)CC[C@]3(C)[C@H](CC[C@@H]4[C@@]5(C)CCCNC(C)(C)[C@@H]5CC[C@]43C)[C@@H]12: inactive

###

- Test system: UO-31 renal
- measurement_description: NCI-60 one-dose screen, 48 h (100 = growth as untreated, 0 = no growth, -100 = all killed)
- measurement_conditions: 10 µM unless noted
- Description: Growth inhibition of the UO-31 human tumor cell line is measured as a screen for anti-cancer activity. Cells are grown in 96 well plates and exposed to the test compound for 48 hours. Compounds are tested at a single concentration, which is 10^-5 M for most compounds. The reported endpoint is percent growth (GI% or GIPRCNT), where numbers from 0 - 100% represent growth inhibition, and numbers from -100% - 0 represent cell death. For example, a value of 40 represents 60% growth inhibition. […]
Compounds without any hit were thinned out: in the full panel of roughly 83,000, 20% have a hit. Activity calls are given as the source filed them. How the source made its calls: active means growth percent below 10; inactive means the rest.
reported_metric: growth

* CCSC1=NC2C(N(CC)C(=O)N2CC)N1/N=C/C=C/c1ccccc1[N+](=O)[O-] (centres undefined) | 34.6% (inactive)
* Cc1ccc2[nH]c(=O)c3c(c2c1)OC(N)=C(C#N)C31c2cc(Br)ccc2-c2ccc(Br)cc21 | 58.3% (inactive)
* CC/C=C1/C(=O)C=C[C@@H]1C/C=C\CCCC(=O)O | 103% (inactive)
* O=[N+]([O-])c1ccc(-c2cc(-c3ccc(Nc4nc(Nc5ccc(Cl)cc5)nc(Nc5ccc(Cl)cc5)n4)cc3)no2)cc1 | 78.8% (inactive)
* Cc1c(C)c2c(c(C)c1OCC(=O)O)CC[C@@](C)(CCC[C@@H](C)CCC[C@@H](C)CCCC(C)C)O2 | 32.6% [50 µM] (inactive)
* CCCCCc1nc2c(c3c1CCCC3)CCCC2 | 47% (inactive)
* Cc1ccc(Nc2nc(N)nc(CSCC(=O)NN)n2)cc1 | 88.2% (inactive)
* CC1SC(c2ccc(OCc3ccccc3)cc2)N(NC(=O)C(O)(c2ccccc2)c2ccccc2)C1=O (centres undefined) | 54.6% (inactive)
* COc1cccc(-c2nn(-c3ccccc3)cc2-c2ccnc(NCCCNC(=O)c3cccc(C(F)(F)F)c3)c2)c1 | 10.9% (inactive)

###

- Tested on: HOP-62 NSCLC
- measurement_description: NCI-60 one-dose screen, 48 h
- measurement_conditions: 10 µM unless noted
- Method: Growth inhibition of the HOP-62 human Non-Small Cell Lung tumor cell line is measured as a screen for anti-cancer activity. Cells are grown in 96 well plates and exposed to the test compound for 48 hours. Compounds are tested at a single concentration, which is 10^-5 M for most compounds. The reported endpoint is percent growth (GI% or GIPRCNT), where numbers from 0 - 100% represent growth inhibition, and numbers from -100% - 0 represent cell death. […]
This is part of a sample that, as a whole, favours compounds with a hit. Of some 83,000 tested, about 20% had one in any assay. Calls of active or inactive are those of the source. How the source made its calls: active means growth percent below 10; inactive means the rest.
Outcomes: y for active, n for inactive

- O=C1CC(N2C(=O)/C(=C/C(Cl)=C\c3ccc([N+](=O)[O-])cc3)SC2=S)C(=O)N1c1ccc(O)cc1 (centres undefined): y
- COC(=O)[C@]12CC[C@@H](C)[C@H](C)[C@@H]1C1=CC[C@@H]3[C@@]4(C)C(C=O)=C[C@@](C)(COC(=O)c5ccco5)[C@@H]4C(=O)C[C@@]3(C)[C@]1(C)CC2: n
- CC/C=C\C[C@H](O)C/C=C1/C(=O)C=C[C@@H]1C/C=C\CCCCO: y
- O=c1c2cc(F)ccc2sc2c(NCCCN3CCCC3)nc3ccccc3c12: n
- O=C1NC(=Nc2ccc(Cl)cc2)S/C1=C\c1cn(-c2ccccc2)nc1-c1ccccc1: n
- CC1(C)CC[C@]2(C(=O)N3CCOCC3)CC[C@]3(C)C(=CC[C@@H]4[C@@]5(C)CC[C@H](OC(=O)c6cccnc6)C(C)(C)[C@@H]5CC[C@]43C)[C@@H]2C1: n
- Cn1cc(-c2csc(-c3ccccc3)n2)c2cccnc21: y
- COc1ccc(C2c3ccc4ccccc4c3Oc3nc(C)[nH]c(=O)c32)cc1 (centres undefined): n
- N#Cc1c(-c2ccccc2)cc(-c2ccc(Nc3nc(Nc4ccc(F)cc4)nc(Nc4ccc(F)cc4)n3)cc2)nc1N: n
- N#Cc1nc(C#N)c(Sc2ccccc2)c(Sc2ccccc2)c1Sc1ccccc1: y
- COc1cc(N=Nc2cc(Cc3ccc(N(C)C)cc3)c(N)cc2N(C)C)c2ncccc2c1: n
- O=c1cc(C2NNC(=S)N2)c2ccc3ccccc3c2o1 (centres undefined): n
- CC(C)(C)C(CCc1ccc(Cl)cc1)N1CCN(C2CCCCC2)CC1 (centres undefined): n
- COc1ccc2cc(-c3cc(OC)c(OC)c(OC)c3)c(=O)oc2c1: n
- CN(C)CC1=NC2SC=C(c3ccccc3)C2C(=O)N1CC#N (centres undefined): n
- CC(C)=C[C@@H]1c2c(c3ccccc3n(C)c2=O)O[C@H]2c3c(c4ccccc4n(C)c3=O)OC(C)(C)[C@@H]12: n
- O=c1c2c3c(sc2nc(N/N=C/c2ccc(Br)cc2)n1Cc1ccccc1)CCCC3: n
- CC(C)(C)CC(C)(C)Nc1c(-c2ccncc2)nc2cnccn12: n
- CN(C)CC1C(=O)O[C@H]2[C@H]1CC/C(COC(=O)c1cc3ccccc3[nH]1)=C\CC[C@@]1(C)O[C@@H]21 (some centres undefined): n
- CNS(=O)(=O)c1n[nH]nc1-c1cc(C(C)(C)C)c(O)c(C(C)(C)C)c1: n
- CCN(CC)CCN1C(=O)c2c(c(C)c3c(oc4cc(O)ccc43)c2C)C1=O: n
- C=CCNc1nc(NN2C(=O)c3cccc4cccc(c34)C2=O)nc(-n2cnc3ccccc32)n1: n
- N=c1sc(Cc2ccc(Cl)cc2)cn1CC(=O)c1ccc(F)cc1: n
- c1csc(-c2c3ccc(=[N+]4CCCCC4)cc-3oc3cc(N4CCCCC4)ccc23)c1: y
- O=c1c2c3c(sc2n2c(-c4cn(-c5ccccc5)nc4-c4ccc(Cl)cc4)nnc2n1Cc1ccccc1)CCCC3: n
- COc1ccc(OC)c2c1[nH]c(=O)c1c3ncccc3cn21: n
- COc1cccc(-c2nn(-c3ccccc3)cc2-c2ccnc(NCCNC(=O)Nc3cccc(C(F)(F)F)c3)c2)c1: y
- NS(=O)(=O)c1cnccc1Oc1cccc2cccnc12: n
- CC(C)CC(NC(=O)CN(Cc1ccccc1)S(C)(=O)=O)C(=O)O (centres undefined): n
- Cc1c(C(=O)NC(Cc2ccccc2)C(O)C(=O)NCc2ccc(F)cc2)[nH]c2ccccc2c1=O (centres undefined): n
- COc1ccc(/C=C/c2c(C(=O)/C=C/c3ccc(F)cc3)c(C)nc3ccccc23)cc1: n
- C[n+]1cc2cc(C(N)=O)[nH]c3c(=N)c(Cl)c(N)c1c23: n
- O=c1c2cc(F)ccc2sc2c(NCCN3CCCCC3)nc3ccccc3c12: n
- COc1cc(/C=C/C(=O)c2c(C)nc3ccccc3c2/C=C/c2ccc(C)cc2)cc(OC)c1OC: n
- O=C(Nc1cccc(C(F)(F)F)c1)Nc1cccc(C(F)(F)F)c1: y
- CCCCC1CCCCN1C(=O)OCC (centres undefined): n
- Oc1ccc(CN2CCC(N3CCOCC3)CC2)c2cccnc12: n
- COCN1CCC2N(COC)CCC3N(COC)CCC1N23 (centres undefined): n
- Cc1cc(=O)[nH]c(N=Nc2c(O)[nH]c3ccccc23)n1: n

Taken from PubChem BioAssay (NCI).
